B1: HDV Ribozyme (parent)
chain: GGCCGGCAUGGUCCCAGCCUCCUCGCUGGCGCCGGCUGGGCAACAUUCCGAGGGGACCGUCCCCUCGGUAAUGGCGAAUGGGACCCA

# Variants of: B1
# METHOD_SUMMARY: self-cleavage, relative activity (ratio to wild type); higher = more cleavage; co-transcriptional
I would appreciate it if you labelled entries 1 (yes) when self-cleavage is 0.2 or higher, otherwise 0 (no).

**Query** Please tell me: is the variant C13G G52U at or over 0.2 in terms of self-cleavage?
**Result** 0 (no)

**Query** Test whether the variant U47A G59C records self-cleavage of 0.2 or higher.
**Result** 1 (yes)

**Query** Could you please find out whether U27A U79G has self-cleavage that meets 0.2 or exceeds it?
**Result** 1 (yes)

**Query** State whether the measured self-cleavage reaches 0.2, counting equality as reaching it, for A77G U79C
**Result** 1 (yes)

**Query** Item C4A G73A with self-cleavage of 0.2 or above?
**Result** 0 (no)

**Query** Entry C32U A83C : is its self-cleavage no less than 0.2?
**Result** 1 (yes)

**Query** Would you say A8U C84A shows self-cleavage at minimum 0.2?
**Result** 1 (yes)

**Query** Is the recorded value of self-cleavage equal to or greater than 0.2 for this variant? U65C A71G
**Result** 1 (yes)

**Query** Kindly determine if self-cleavage recorded for C18G G53C is above or exactly 0.2.
**Result** 1 (yes)

**Query** Does the variant G28A G40C have recorded self-cleavage that is 0.2 or more?
**Result** 0 (no)

**Query** Could you tell me if the measured self-cleavage of G10C G25A reaches 0.2 or more?
**Result** 1 (yes)
